Tested on: S. aureus
ASSAY_EXPLANATION: MIC assayed against S. aureus (Table 1)
Format: cell-based
Peptide text beside a SMILES is read from it. * marks the point of attachment. Lauroyl = CCCCCCCCCCCC(=O)*; Butyryl = CCCC(=O)*
List of MIC (minimal inhibitory concentration) values.
Record the value in µM, omitting the unit from your answer.

For orientation, consider the following solved cases.
>>> meas_value("CCCCCCCCCCCC(=O)N[C@H](C(=O)N[C@@H](CC(C)C)C(=O)N[C@@H](CC(C)C)C(=O)N[C@@H](CCCCN)C(=O)N[C@@H](CCCCN)C(=O)N[C@H](C(=O)N[C@@H](CC(C)C)C(=O)N[C@@H](CCCCN)C(=O)N[C@@H](C)C(N)=O)C(C)C)[C@@H](C)O [SEQ ID NO: 5, C12, —CONH2] (Lauroyl-TLLKKVLKA-NH2)")
1.5
>>> meas_value("CCCC(=O)N[C@@H](C)C(=O)N[C@@H](CC(C)C)C(=O)N[C@@H](Cc1c[nH]c2ccccc12)C(=O)N[C@@H](CCCCN)C(=O)N[C@H](C(=O)N[C@@H](CC(C)C)C(=O)N[C@@H](CC(C)C)C(=O)N[C@@H](CCCCN)C(=O)N[C@@H](CCCCN)C(=O)N[C@H](C(=O)N[C@@H](CC(C)C)C(=O)N[C@@H](CCCCN)C(=O)N[C@@H](C)C(N)=O)C(C)C)[C@@H](C)O [SEQ ID NO: 1, C4—, —CONH2] (Butyryl-ALWKTLLKKVLKA-NH2)")
12

Tell me the measured MIC (minimal inhibitory concentration) of `CC(C)C[C@H](NC(=O)[C@H](C)NC(=O)[C@H](CCCCN)NC(=O)CCCCCCCCCCCN)C(=O)N[C@@H](Cc1c[nH]c2ccccc12)C(=O)N[C@@H](CCCCN)C(=O)N[C@H](C(=O)N[C@@H](CC(C)C)C(=O)N[C@@H](CC(C)C)C(=O)N[C@@H](CCCCN)C(=O)N[C@@H](CCCCN)C(=O)N[C@H](C(=O)N[C@@H](CC(C)C)C(=O)N[C@@H](CCCCN)C(=O)N[C@@H](C)C(N)=O)C(C)C)[C@@H](C)O` , please.
1.5

Tell me the measured MIC (minimal inhibitory concentration) of CCCCCCCCCCCC(=O)N[C@@H](C)C(=O)N[C@@H](CC(C)C)C(=O)N[C@@H](Cc1c[nH]c2ccccc12)C(=O)N[C@@H](CCCCN)C(=O)N[C@H](C(=O)N[C@@H](CC(C)C)C(=O)N[C@@H](CC(C)C)C(=O)N[C@@H](CCCCN)C(=O)N[C@@H](CCCCN)C(=O)N[C@H](C(N)=O)C(C)C)[C@@H](C)O [SEQ ID NO: 4, C12, —CONH2] (Lauroyl-ALWKTLLKKV-NH2) , please.
3

Tell me the measured MIC (minimal inhibitory concentration) of CC(=O)N[C@@H](C)C(=O)N[C@@H](CC(C)C)C(=O)N[C@@H](Cc1c[nH]c2ccccc12)C(=O)N[C@@H](CCCCN)C(=O)N[C@H](C(=O)N[C@@H](CC(C)C)C(=O)N[C@@H](CC(C)C)C(=O)N[C@@H](CCCCN)C(=O)N[C@@H](CCCCN)C(=O)N[C@H](C(=O)N[C@@H](CC(C)C)C(=O)N[C@@H](CCCCN)C(=O)N[C@@H](C)C(N)=O)C(C)C)[C@@H](C)O [SEQ ID NO: 1, C2—, —CONH2] (Ac-ALWKTLLKKVLKA-NH2) , please.
25
